meta.source: patent US5344843A

- Assayed target: CAT-1 (carnitine acyltransferase 1) (Rattus norvegicus, UniProt Q63704)
- Construct: This preparation is used as the isolated mitochondrial preparation; from tissue; host or cells: rat heart (atria removed), isolated mitochondria
- Sequence (Q63704 1-772): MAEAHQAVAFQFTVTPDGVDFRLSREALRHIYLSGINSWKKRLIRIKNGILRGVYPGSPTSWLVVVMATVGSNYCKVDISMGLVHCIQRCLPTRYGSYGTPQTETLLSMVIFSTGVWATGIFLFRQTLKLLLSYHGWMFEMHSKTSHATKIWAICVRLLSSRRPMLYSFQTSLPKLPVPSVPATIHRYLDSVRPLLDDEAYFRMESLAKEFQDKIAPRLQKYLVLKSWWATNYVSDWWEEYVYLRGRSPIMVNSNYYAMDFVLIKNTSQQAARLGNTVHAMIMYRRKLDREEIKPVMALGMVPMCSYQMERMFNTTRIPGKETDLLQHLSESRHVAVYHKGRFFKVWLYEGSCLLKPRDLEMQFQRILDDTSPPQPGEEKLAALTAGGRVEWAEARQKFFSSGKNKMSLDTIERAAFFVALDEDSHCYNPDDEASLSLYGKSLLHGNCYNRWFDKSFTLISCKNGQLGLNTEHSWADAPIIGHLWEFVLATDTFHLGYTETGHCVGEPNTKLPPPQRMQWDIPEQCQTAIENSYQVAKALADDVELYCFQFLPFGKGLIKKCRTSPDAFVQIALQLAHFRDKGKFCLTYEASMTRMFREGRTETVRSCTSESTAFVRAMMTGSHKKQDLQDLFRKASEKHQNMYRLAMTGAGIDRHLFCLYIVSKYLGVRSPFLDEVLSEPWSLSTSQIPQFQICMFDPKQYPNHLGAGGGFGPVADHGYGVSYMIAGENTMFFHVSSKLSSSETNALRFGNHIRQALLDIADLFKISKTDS
- Protocol description: Secondary Screen--Inhibition of CAT-1 in intact cardiac myocytes (hypoxia-induced increase in long-chain acylcarnitines)
- Format: cell-based
- Condition info: isolated rat cardiac myocytes, 50% inhibition of hypoxia-induced increase in long-chain acylcarnitines
pIC50: −log10 of the molar value.
pIC50 values for the compounds below.
Property label: pIC50

- Compound: "O=C(O)C(=O)c1ccc(OCC(=O)c2cccc3ccccc23)cc1 [Example 284]"
  Assayed target: "CAT-1 (carnitine acyltransferase 1) (Rattus norvegicus, UniProt Q63704)"
  Measured: 6.10
- Compound: "O=C(O)C(=O)c1ccc(OCCOc2ccc3ccccc3c2)c([N+](=O)[O-])c1 [Example 179]"
  Assayed target: "CAT-1 (carnitine acyltransferase 1) (Rattus norvegicus, UniProt Q63704)"
  Measured: 5.10
- Compound: "O=C(O)C(=O)c1ccc(OCCCCc2ccccc2)cc1 [Example 25]"
  Assayed target: "CAT-1 (carnitine acyltransferase 1) (Rattus norvegicus, UniProt Q63704)"
  Measured: 4.92
- Compound: "CC(C)c1cccc(-c2ccc(F)cc2)c1/C=C/COc1ccc(C(=O)C(=O)O)cc1 [Example 229]"
  Assayed target: "CAT-1 (carnitine acyltransferase 1) (Rattus norvegicus, UniProt Q63704)"
  Measured: 6.00
- Compound: "CC(C)n1c(/C=C/COc2ccc(C(=O)C(=O)O)cc2)c(-c2ccc(F)cc2)c2ccccc21 [Example 241]"
  Assayed target: "CAT-1 (carnitine acyltransferase 1) (Rattus norvegicus, UniProt Q63704)"
  Measured: 4.92
